log10 of IC50 by entry:
Target: cAMP and cAMP-inhibited cGMP 3',5'-cyclic phosphodiesterase 10A (Homo sapiens, UniProt Q9Y233)
Sequence (Q9Y233 whole entry): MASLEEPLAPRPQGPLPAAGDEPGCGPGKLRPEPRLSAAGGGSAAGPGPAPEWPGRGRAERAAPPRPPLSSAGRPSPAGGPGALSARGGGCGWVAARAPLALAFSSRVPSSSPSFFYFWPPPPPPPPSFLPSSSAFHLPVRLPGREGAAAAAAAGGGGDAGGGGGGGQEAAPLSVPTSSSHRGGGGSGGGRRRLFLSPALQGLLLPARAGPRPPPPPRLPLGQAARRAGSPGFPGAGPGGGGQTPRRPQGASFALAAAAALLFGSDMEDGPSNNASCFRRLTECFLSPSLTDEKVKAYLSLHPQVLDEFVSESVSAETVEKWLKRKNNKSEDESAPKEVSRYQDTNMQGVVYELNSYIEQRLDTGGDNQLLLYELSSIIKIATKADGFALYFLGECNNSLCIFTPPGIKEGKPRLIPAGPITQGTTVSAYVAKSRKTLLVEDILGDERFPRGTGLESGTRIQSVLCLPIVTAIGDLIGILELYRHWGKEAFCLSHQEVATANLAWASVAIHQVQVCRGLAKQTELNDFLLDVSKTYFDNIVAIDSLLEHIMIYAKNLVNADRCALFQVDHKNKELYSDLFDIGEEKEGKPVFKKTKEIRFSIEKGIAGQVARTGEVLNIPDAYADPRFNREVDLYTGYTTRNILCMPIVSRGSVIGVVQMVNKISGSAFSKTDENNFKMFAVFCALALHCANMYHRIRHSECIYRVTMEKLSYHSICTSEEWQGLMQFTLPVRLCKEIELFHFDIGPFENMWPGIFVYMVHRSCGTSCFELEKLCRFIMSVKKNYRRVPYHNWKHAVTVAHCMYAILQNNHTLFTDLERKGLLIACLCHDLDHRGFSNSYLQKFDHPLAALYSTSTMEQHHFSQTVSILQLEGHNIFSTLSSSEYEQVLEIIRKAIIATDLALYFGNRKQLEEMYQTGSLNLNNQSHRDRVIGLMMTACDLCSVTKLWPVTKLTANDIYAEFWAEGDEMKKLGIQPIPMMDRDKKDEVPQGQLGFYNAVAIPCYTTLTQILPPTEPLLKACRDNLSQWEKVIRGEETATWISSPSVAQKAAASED
assay.readout: log10 of IC50 (log10 of the value in nM)

In [3]: df
Out[3]:
                                    molecule  assay_readout  value
 0  c1cnc(O[C@H]2C[C@H](Nc3nc4ccccc4s3)C2)c(C2CCOCC2)c1  log10 of IC50   0.50
 1  Cc1cccc(N[C@H]2CC[C@H](Oc3ncccc3C3CCOCC3)CC2)n1  log10 of IC50   3.24
 2  COCC(=O)N1CCC(c2cccnc2O[C@H]2C[C@@H](Nc3ccc4ccccc4n3)C2)CC1  log10 of IC50  -0.02
 3  CC(=O)N1CCC(c2nccnc2O[C@H]2C[C@H](Nc3ccc4ccccc4n3)C2)CC1  log10 of IC50   1.20
 4  NC(=O)c1ccc(-c2nccnc2O[C@H]2C[C@@H](Nc3nc4ccccc4s3)C2)cn1  log10 of IC50   0.47
 5  NC(=O)c1ccc(-c2nccnc2O[C@H]2C[C@@H](Nc3ccc4ccccc4n3)C2)cn1  log10 of IC50   0.58
 6  CC(=O)N1CCC(c2nccnc2O[C@H]2C[C@H](Nc3ccc(C)cn3)C2)CC1  log10 of IC50   1.93
 7  CC(=O)N1CCC(c2cccnc2O[C@H]2C[C@@H](Nc3ccc4ccccc4n3)C2)CC1  log10 of IC50   0.12
 8  CC1CCN(c2nccnc2O[C@H]2C[C@@H](Nc3nc4ccccc4s3)C2)C1 (stereo not given in full)  log10 of IC50   0.84
 9  c1ccc2sc(N[C@H]3C[C@@H](Oc4nccnc4N4CCOCC4)C3)nc2c1  log10 of IC50   1.35
10  Fc1ccc2sc(N[C@H]3C[C@@H](Oc4nccnc4C4CCOCC4)C3)nc2c1  log10 of IC50   1.26
11  COC(=O)N1CCC(c2cccnc2O[C@H]2C[C@@H](Nc3nc4ccccc4s3)C2)CC1  log10 of IC50   0.50
12  Fc1ccc2nc(N[C@H]3C[C@@H](Oc4nccnc4C4CCOCC4)C3)sc2c1  log10 of IC50   1.18
13  c1ccc2nc(N[C@H]3C[C@@H](Oc4nccnc4C4CCOCC4)C3)ccc2c1  log10 of IC50   0.88
14  c1cnc(O[C@H]2CC[C@H](Nc3nc4ccccc4o3)CC2)c(C2CCOCC2)c1  log10 of IC50   1.08
15  COCC(=O)N1CCC(c2nccnc2O[C@H]2C[C@@H](Nc3ccc4ccccc4n3)C2)CC1  log10 of IC50   0.70
16  N#CC1CCN(c2nccnc2O[C@H]2C[C@@H](Nc3nc4ccccc4s3)C2)CC1  log10 of IC50   0.36
17  COCC(=O)N1CCC(c2nccnc2O[C@H]2C[C@@H](Nc3nc4ccccc4s3)C2)CC1  log10 of IC50   0.82
18  O=C(c1ccccn1)C1CC(Oc2ncccc2C2CCOCC2)C1 (stereo not given)  log10 of IC50   2.40
19  N#Cc1ccc(-c2nccnc2O[C@H]2C[C@@H](Nc3ncc4ccccc4n3)C2)cn1  log10 of IC50   0.89

meta.source: ChEMBL document CHEMBL3639003
